Would you kindly list switch fluorescence ratio for each of these sequences?
- Tested on: ATP;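 further: ATP exposure 15 min at 22 °C before imaging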
- PROTOCOL DETAILS: switch fluorescence ratio, 500 uM ATP over buffer (Cy3 cluster intensity, sum of 5 cycles each) (fold (ratio)); higher = stronger signal-on switching upon ATP binding; sequences stand for … in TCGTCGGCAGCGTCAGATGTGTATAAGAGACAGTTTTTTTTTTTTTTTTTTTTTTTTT…TC
- STUDY CONDITIONS: aptamer strand: ATP DNA aptamer (quencher-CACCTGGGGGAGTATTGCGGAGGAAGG + anchor), 100 nM annealed; ATP concentration: 500 uM
One number for each entry.

GTAGCAACGG
1.59
TGCTATGAGG
1.01
AATGTCGCGA
1
AGTAGCCTGA
1.01

Please state, for each entry, its recorded switch fluorescence ratio.
1. CCGGGTATCC
2. GCGGGGGAG
3. TGTTGGTAAA
4. ATTATGGGAG
5. ACGTCCAAAA
6. ATCTCGCAGG
7. TGGGGTAGGG

**A:**
[1.19, 1.01, 1.02, 0.989, 1.04, 1.08, 0.998]

---

- Test system: ATP;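 further: ATP exposure 15 min at 22 °C before imaging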
- PROTOCOL DETAILS: switch fluorescence ratio, 500 uM ATP over buffer (Cy3 cluster intensity, sum of 5 cycles each) (fold (ratio)); higher = stronger signal-on switching upon ATP binding; sequences stand for … in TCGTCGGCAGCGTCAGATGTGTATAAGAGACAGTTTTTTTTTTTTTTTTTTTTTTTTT…TC
- STUDY CONDITIONS: aptamer strand: ATP DNA aptamer (quencher-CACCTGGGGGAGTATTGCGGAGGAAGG + anchor), 100 nM annealed; ATP concentration: 500 uM
Would you kindly list switch fluorescence ratio for each of these sequences?

Known results for sequences:
ACGTAAAAGT
1.25
TTTGTGTGTC
1
GCTGATTTAT
0.982
ACCTCGTTTC
1.02
ATAGATGTCT
0.992
TCTGTGGGTT
0.973

Please state, for each entry, its recorded switch fluorescence ratio.
1. AACGTCTGGA
2. GACCCTGATC
3. GAGGGGGCAA
4. ATAAGATTGT
5. AGTTTGTGTC
6. GCTCCAATAA

**A:**
0.972
1.17
1.01
0.963
0.965
2.49

Please state, for each entry, its recorded switch fluorescence ratio.
1. AAATAAACA
2. CGTGGGGTTC
3. AGTGTGTGAA
4. CCATTGTCCC

**A:**
[0.999, 0.983, 0.962, 1.05]

Please state, for each entry, its recorded switch fluorescence ratio.
1. TTTATCGGG
2. CAGTAAAGGG
3. ATTCAAATGT
4. GACTACATTA

**A:**
1.01
0.97
1
1.03

---

- System: ATP;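 further: ATP exposure 15 min at 22 °C before imaging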
- PROTOCOL DETAILS: switch fluorescence ratio, 500 uM ATP over buffer (Cy3 cluster intensity, sum of 5 cycles each) (fold (ratio)); higher = stronger signal-on switching upon ATP binding; sequences stand for … in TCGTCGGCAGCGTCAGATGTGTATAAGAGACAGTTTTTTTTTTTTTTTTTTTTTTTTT…TC
- STUDY CONDITIONS: aptamer strand: ATP DNA aptamer (quencher-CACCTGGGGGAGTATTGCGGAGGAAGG + anchor), 100 nM annealed; ATP concentration: 500 uM
READOUT NAME: switch fluorescence ratio
Give bare numbers.

Known results for sequences:
TTCGGTGGGA
1.07
GGCGTAGGGG
1.02
TCCTTTAAGA
0.998

Please state, for each entry, its recorded switch fluorescence ratio.
1. TGGGGTGTTT
2. TGGGTTGTCG
3. ATAGGGGGAG
4. CTGAAAGAGT

**A:**
1: 0.983; 2: 1.02; 3: 1; 4: 0.976

Please state, for each entry, its recorded switch fluorescence ratio.
1. CGGTTAACCA
2. TTATGATTCT
3. TTTTTCATCC
4. CAGGTCGACT
5. TGGAATACG

**A:**
[1.02, 0.972, 1.18, 0.972, 1.35]

Please state, for each entry, its recorded switch fluorescence ratio.
1. GTAATTTTGG
2. TTTTGATCAT
3. GCTGGGGGCC
4. GGGTTAGGGT
5. TCATGGCGCA
6. TGAATGGTCT
7. TTGGAATTTA

**A:**
1: 0.983; 2: 0.98; 3: 0.981; 4: 0.991; 5: 1.07; 6: 1.01; 7: 1

Please state, for each entry, its recorded switch fluorescence ratio.
1. AACTGGGGAT
2. TAAGAAATGG
3. ATGTCATAAA
4. GGGCGGACAG
5. ATCTCGTTA
6. TATGTGCAGG

**A:**
0.981
1.02
1.03
0.985
1.04
0.995

---

- Test system: ATP;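 further: ATP exposure 15 min at 22 °C before imaging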
- PROTOCOL DETAILS: switch fluorescence ratio, 500 uM ATP over buffer (Cy3 cluster intensity, sum of 5 cycles each) (fold (ratio)); higher = stronger signal-on switching upon ATP binding; sequences stand for … in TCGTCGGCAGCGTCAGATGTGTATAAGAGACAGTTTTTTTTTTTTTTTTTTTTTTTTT…TC
- STUDY CONDITIONS: aptamer strand: ATP DNA aptamer (quencher-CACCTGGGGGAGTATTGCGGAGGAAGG + anchor), 100 nM annealed; ATP concentration: 500 uM
Would you kindly list switch fluorescence ratio for each of these sequences?
Give bare numbers.

Known results for sequences:
AATGGTGCGA
0.975
CGGGTTTCGC
0.986
ATGGGCTGG
0.975
CCAAGTTGCC
0.993

Please state, for each entry, its recorded switch fluorescence ratio.
1. AAAGAGTTGA
2. AATTTTCCAC
3. TATTCTACCA

**A:**
1
1.02
1.01

---

- System: ATP;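 further: ATP exposure 15 min at 22 °C before imaging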
- PROTOCOL DETAILS: switch fluorescence ratio, 500 uM ATP over buffer (Cy3 cluster intensity, sum of 5 cycles each) (fold (ratio)); higher = stronger signal-on switching upon ATP binding; sequences stand for … in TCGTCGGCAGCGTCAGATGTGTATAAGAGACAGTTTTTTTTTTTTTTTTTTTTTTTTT…TC
- STUDY CONDITIONS: aptamer strand: ATP DNA aptamer (quencher-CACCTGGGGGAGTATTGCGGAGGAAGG + anchor), 100 nM annealed; ATP concentration: 500 uM
READOUT NAME: switch fluorescence ratio
Give bare numbers.

Known results for sequences:
ATTAGATATA
1
CAGGTAGGGT
1.01
GAGTTATTGT
0.981

Please state, for each entry, its recorded switch fluorescence ratio.
1. TGGAATATTT
2. AGGTGTTGGA

**A:**
[1.03, 0.985]

Please state, for each entry, its recorded switch fluorescence ratio.
1. TCATTTAGGT
2. AAATATAGTG
3. ATGGTATGGT

**A:**
0.967
0.991
0.985

---

Would you kindly list switch fluorescence ratio for each of these sequences?
- Tested on: ATP;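 further: ATP exposure 15 min at 22 °C before imaging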
- PROTOCOL DETAILS: switch fluorescence ratio, 500 uM ATP over buffer (Cy3 cluster intensity, sum of 5 cycles each) (fold (ratio)); higher = stronger signal-on switching upon ATP binding; sequences stand for … in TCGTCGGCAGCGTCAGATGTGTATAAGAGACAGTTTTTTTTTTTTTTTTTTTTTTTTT…TC
- STUDY CONDITIONS: aptamer strand: ATP DNA aptamer (quencher-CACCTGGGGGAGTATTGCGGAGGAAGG + anchor), 100 nM annealed; ATP concentration: 500 uM
Give bare numbers.

Known results for sequences:
TAAGGGGTCC
0.979
GGGGGTAAGA
0.981

Please state, for each entry, its recorded switch fluorescence ratio.
1. GTTGTATAGA
2. TGGATGAGCT
3. TAGTAGACTC

**A:**
[1, 0.997, 1.46]

Please state, for each entry, its recorded switch fluorescence ratio.
1. CGAACTGGGT
2. GGAATTAAAT
3. CAACCCGGTA
4. ACGGGTAATT
5. TGGTTGTTGG

**A:**
1.03
0.985
1.51
1.02
0.95

---

- Tested on: ATP;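 further: ATP exposure 15 min at 22 °C before imaging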
- PROTOCOL DETAILS: switch fluorescence ratio, 500 uM ATP over buffer (Cy3 cluster intensity, sum of 5 cycles each) (fold (ratio)); higher = stronger signal-on switching upon ATP binding; sequences stand for … in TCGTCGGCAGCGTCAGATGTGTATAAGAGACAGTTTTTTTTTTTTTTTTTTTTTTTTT…TC
- STUDY CONDITIONS: aptamer strand: ATP DNA aptamer (quencher-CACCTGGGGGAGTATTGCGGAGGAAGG + anchor), 100 nM annealed; ATP concentration: 500 uM
READOUT NAME: switch fluorescence ratio
Give bare numbers.

CTTGGGTTCT
1
TTGGGACTGG
1.12
CCGCTGTTTT
1.16
TATAGGCCCC
0.983
GAAATTTGG
1.01
TTCATAGCTT
1.02
TGAAGTTTTA
0.989
GGGATCTACA
1.03

Please state, for each entry, its recorded switch fluorescence ratio.
1. CGGGTTGCCT
2. ATTCGGTCTG
3. ACGGGGTTTT

**A:**
0.999
0.983
1.01

Origin of the recorded values: the supplement of paper PMC10126150
